Tested on: LOX IMVI melanoma
Assay: NCI tumour cell line growth inhibition, 48 h
Could you please report measured TGI for the items listed next?

In the examples that follow, each entry is paired with its recorded TGI.
{"compound": "O=c1[nH]c(=O)n(C2CC(O)C(CO)O2)c2nc3ccc4cc5ccccc5cc4c3nc12 (stereo not given)", "TGI": "> 100 µM"}
{"compound": "CO/N=C(\\COc1ccc2oc(-c3ccccc3)cc(=O)c2c1)c1ccc(OC)cc1", "TGI": "> 100 µM"}
{"compound": "ON[C@H]1C[C@@H](n2cnc3c(NC4CC4)ncnc32)[C@H](O)[C@@H]1O", "TGI": "> 100 µM"}
{"compound": "CSc1snc2sc3c(Cl)nnnc3c12", "TGI": "11.2 µM"}

Exercise: Which TGI value is on record for N=CN=CC(=S)O[C@@H]1C(=O)N2CCC[C@@]23CCCC[C@@H]13 ?
Key: > 12.5 µM
